Where do the numbers come from? From paper PMC9482650.

assay_system: DLG1_3, Q12959
Sequence (Q12959 457-571): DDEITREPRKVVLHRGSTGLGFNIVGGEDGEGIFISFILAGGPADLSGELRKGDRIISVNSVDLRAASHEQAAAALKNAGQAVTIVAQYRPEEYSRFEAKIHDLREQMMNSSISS
assay_protocol: holdup assay
Set-up: key: below the threshold = too weak to quantify, mostly under pKd 3.1 to 4
assay_conditions: plain residues with an end cap or a label only (N-terminal biotin on a linker: ado-ado)
measured_property: pKd

                         binder  measured_property             reported
0    TFSRRPKTRV [CD226, Q15762]                pKd  below the threshold
1    RGKNRRQSIF [CDK18, Q07002]                pKd                 3.71
2  ADEMICITTL [CACNA1D, Q01668]                pKd                 3.78
3    PALKNGQYWV [CSPG4, Q6UVK1]                pKd  below the threshold
